pIC50: −log10 of the molar value.
MEASURED QUANTITY: pIC50

What pIC50 appears in the records for this compound with UniProt P12821? CC(C)OC(=O)N1C[C@H](S)C[C@H]1CNCc1cc(F)ccc1F
Sequence (P12821 whole entry): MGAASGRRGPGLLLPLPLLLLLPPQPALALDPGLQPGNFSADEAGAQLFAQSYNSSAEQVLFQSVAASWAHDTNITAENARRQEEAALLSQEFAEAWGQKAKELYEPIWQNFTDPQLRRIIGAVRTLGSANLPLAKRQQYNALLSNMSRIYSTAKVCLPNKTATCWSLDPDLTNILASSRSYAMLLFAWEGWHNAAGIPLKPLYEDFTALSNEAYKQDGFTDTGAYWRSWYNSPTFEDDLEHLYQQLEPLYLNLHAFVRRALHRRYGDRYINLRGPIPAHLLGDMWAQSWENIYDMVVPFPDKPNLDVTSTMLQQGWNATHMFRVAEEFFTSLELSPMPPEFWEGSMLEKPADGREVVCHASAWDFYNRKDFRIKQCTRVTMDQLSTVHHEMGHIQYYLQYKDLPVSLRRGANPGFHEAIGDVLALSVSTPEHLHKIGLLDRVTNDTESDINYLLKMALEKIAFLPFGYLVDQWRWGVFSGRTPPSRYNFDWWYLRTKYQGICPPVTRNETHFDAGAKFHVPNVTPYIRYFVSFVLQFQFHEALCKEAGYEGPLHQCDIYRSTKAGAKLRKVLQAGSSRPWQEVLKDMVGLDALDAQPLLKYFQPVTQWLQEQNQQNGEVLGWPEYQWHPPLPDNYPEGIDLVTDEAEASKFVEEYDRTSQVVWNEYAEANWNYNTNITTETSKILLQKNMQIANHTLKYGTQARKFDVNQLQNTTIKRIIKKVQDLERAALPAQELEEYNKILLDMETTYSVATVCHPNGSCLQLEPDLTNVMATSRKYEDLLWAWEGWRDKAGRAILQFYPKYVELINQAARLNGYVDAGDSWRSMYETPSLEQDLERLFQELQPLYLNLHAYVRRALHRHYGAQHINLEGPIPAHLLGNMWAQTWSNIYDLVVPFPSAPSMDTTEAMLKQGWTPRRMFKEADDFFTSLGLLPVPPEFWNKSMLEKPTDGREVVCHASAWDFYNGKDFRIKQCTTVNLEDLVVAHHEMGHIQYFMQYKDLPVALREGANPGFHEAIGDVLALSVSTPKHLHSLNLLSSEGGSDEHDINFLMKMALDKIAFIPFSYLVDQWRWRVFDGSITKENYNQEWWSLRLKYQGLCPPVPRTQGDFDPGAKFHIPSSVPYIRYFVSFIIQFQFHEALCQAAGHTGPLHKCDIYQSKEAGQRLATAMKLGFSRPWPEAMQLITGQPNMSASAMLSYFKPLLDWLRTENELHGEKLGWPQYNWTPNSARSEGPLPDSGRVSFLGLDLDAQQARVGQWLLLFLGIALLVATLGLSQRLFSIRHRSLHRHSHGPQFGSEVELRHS
< 4.00

What pIC50 appears in the records for this compound with UniProt P12821? CCCc1cnc(N2C[C@H](S)C[C@H]2CNCc2cc(F)ccc2F)nc1
4.50

What pIC50 appears in the records for this compound with UniProt P12821? O=C(S[C@@H]1C[C@@H](COCc2cc(F)c(F)cc2F)N(C(=O)Oc2cccc3c2OCCO3)C1)c1ccccc1
< 4.00

###

Task for the reader: assign each of the following compounds its reported IC50.
Molecular target: Endothelin-converting enzyme 1 (Homo sapiens, UniProt P42892)
Sequence (P42892 whole entry): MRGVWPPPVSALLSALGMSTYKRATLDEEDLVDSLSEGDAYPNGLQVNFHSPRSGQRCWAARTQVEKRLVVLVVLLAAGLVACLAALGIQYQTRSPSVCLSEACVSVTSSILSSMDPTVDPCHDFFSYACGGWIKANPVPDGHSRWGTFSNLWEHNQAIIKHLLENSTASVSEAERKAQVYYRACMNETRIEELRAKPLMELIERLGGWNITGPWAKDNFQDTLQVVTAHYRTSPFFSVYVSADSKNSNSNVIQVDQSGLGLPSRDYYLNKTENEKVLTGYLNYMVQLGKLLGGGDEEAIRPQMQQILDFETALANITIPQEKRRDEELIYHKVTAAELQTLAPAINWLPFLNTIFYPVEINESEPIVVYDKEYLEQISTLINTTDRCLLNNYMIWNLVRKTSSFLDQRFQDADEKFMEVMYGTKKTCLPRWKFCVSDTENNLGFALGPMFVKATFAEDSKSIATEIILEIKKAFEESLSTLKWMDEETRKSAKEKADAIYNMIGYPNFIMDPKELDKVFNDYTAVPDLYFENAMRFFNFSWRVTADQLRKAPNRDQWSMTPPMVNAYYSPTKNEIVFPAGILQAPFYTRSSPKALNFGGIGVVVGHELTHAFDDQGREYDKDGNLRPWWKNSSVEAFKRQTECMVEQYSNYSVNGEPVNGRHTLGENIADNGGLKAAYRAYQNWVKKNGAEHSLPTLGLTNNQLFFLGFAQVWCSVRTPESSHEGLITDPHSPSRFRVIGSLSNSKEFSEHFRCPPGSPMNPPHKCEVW
Experiment: Inhibitory concentration against human ECE-1 by RIA
Write the answer as a number in nM, unit excluded.

Requested field: IC50. Item: CCCc1cnc(N2C[C@H](S)C[C@H]2CNCc2cc(F)ccc2F)nc1
10.4

Requested field: IC50. Item: CC(=O)S[C@@H]1C[C@@H](COCc2cc(F)c(F)cc2F)N(C(=O)Oc2cccc3c2OCCO3)C1
6.9

Requested field: IC50. Item: COC(=O)c1ccccc1NC(=O)CN(C)C(=O)C1C[C@@H](S)CN1S(=O)(=O)c1ccc2ccccc2c1 (stereo partly drawn)
80.8

Requested field: IC50. Item: Cc1ccc(S(=O)(=O)NN(C)C(=O)C2C[C@@H](S)CN2S(=O)(=O)c2ccc3ccccc3c2)cc1 (stereo partly drawn)
61.3

Requested field: IC50. Item: O=P(O)(O)C(Cc1ccc2ccccc2c1)N[C@@H](Cc1ccc(-c2ccccc2)cc1)c1nnn[nH]1 (stereo partly drawn)
20

Requested field: IC50. Item: COC(=O)c1ccccc1OC(=O)N1CC(S)CC1COCc1cc(F)c(F)cc1F (stereo not drawn)
1.2

Requested field: IC50. Item: CC(C)OC(=O)N1C[C@H](S)C[C@H]1CNCc1cc(F)ccc1F
16

Requested field: IC50. Item: O=C(S[C@@H]1C[C@@H](COCc2cc(F)c(F)cc2F)N(C(=O)Oc2cccc3c2OCCO3)C1)c1ccccc1
49.7

###

MEASURED QUANTITY: IC50 (µM)
Write the answer as a number in µM, unit excluded.

What IC50 appears in the records for this compound with Neprilysin (Homo sapiens, UniProt P08473)? COC(=O)c1ccccc1NC(=O)CN(C)C(=O)C1C[C@@H](S)CN1S(=O)(=O)c1ccc2ccccc2c1 (stereo not given in full)
Sequence (P08473 whole entry): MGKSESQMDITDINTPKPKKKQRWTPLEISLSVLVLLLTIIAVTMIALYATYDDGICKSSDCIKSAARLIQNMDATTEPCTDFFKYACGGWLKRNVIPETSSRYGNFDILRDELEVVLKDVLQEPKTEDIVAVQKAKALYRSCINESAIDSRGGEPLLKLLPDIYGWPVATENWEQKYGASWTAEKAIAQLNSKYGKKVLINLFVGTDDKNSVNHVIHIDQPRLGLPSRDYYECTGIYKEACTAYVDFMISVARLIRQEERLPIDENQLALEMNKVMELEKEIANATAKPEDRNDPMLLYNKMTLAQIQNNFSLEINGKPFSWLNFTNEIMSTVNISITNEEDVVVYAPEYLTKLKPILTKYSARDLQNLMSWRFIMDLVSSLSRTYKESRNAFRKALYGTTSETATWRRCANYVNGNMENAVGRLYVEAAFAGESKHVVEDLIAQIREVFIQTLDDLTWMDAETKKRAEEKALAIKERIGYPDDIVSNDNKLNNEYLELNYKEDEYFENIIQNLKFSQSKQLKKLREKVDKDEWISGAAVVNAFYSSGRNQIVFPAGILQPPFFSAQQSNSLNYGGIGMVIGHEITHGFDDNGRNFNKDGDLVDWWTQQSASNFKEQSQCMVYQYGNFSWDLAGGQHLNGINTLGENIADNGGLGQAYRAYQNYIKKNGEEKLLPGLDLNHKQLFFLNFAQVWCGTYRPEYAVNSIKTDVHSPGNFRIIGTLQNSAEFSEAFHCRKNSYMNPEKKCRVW
81.9

What IC50 appears in the records for this compound with Neprilysin (Homo sapiens, UniProt P08473)? Cc1ccc(S(=O)(=O)NN(C)C(=O)C2C[C@@H](S)CN2S(=O)(=O)c2ccc3ccccc3c2)cc1 (stereo not given in full)
39.2

###

Assay: Inhibitory concentration of the compound was determined against DNA synthesis in LN18 glioblastoma cells
Assay type: functional, cell-based
Conditions: Homo sapiens
MEASURED QUANTITY: pIC50
The quantity pIC50 is defined as the negative base-10 logarithm of the molar concentration.

Requested field: pIC50. Item: CCCc1cnc(N2C[C@H](S)C[C@H]2CNCc2cc(F)ccc2F)nc1
4.72

###

Task for the reader: assign each of the following compounds its reported log10 IC50.
Target: UniProt P42892
Assay: Inhibitory concentration against human ECE-1 expressed in MDCK cells
Assay type: cell-based
Hi team, quick reminder: these entries are log10 of IC50 (nM).

Requested field: log10 IC50. Item: COC(=O)c1ccccc1NC(=O)CN(C)C(=O)C1C[C@@H](S)CN1S(=O)(=O)c1ccc2ccccc2c1 (some centres not stated)
4.04

Requested field: log10 IC50. Item: CC(C)OC(=O)N1C[C@H](S)C[C@H]1CNCc1cc(F)ccc1F
3.04

Requested field: log10 IC50. Item: COC(=O)c1ccccc1OC(=O)N1CC(S)CC1COCc1cc(F)c(F)cc1F (configuration not stated)
1.83

Requested field: log10 IC50. Item: O=C(S[C@@H]1C[C@@H](COCc2cc(F)c(F)cc2F)N(C(=O)Oc2cccc3c2OCCO3)C1)c1ccccc1
2.68

Requested field: log10 IC50. Item: CC(=O)S[C@@H]1C[C@@H](COCc2cc(F)c(F)cc2F)N(C(=O)Oc2cccc3c2OCCO3)C1
1.88

Requested field: log10 IC50. Item: CCCc1cnc(N2C[C@H](S)C[C@H]2CNCc2cc(F)ccc2F)nc1
1.86

Requested field: log10 IC50. Item: Cc1ccc(S(=O)(=O)NN(C)C(=O)C2C[C@@H](S)CN2S(=O)(=O)c2ccc3ccccc3c2)cc1 (some centres not stated)
3.40

###

Task for the reader: assign each of the following molecules its reported pIC50.
pIC50: −log10 of the molar value.

What pIC50 appears in the records for this molecule with Neprilysin (Homo sapiens, UniProt P08473)? O=C(S[C@@H]1C[C@@H](COCc2cc(F)c(F)cc2F)N(C(=O)Oc2cccc3c2OCCO3)C1)c1ccccc1
< 4.00

What pIC50 appears in the records for this molecule with Neprilysin (Homo sapiens, UniProt P08473)? CCCc1cnc(N2C[C@H](S)C[C@H]2CNCc2cc(F)ccc2F)nc1
< 4.00

What pIC50 appears in the records for this molecule with Neprilysin (Homo sapiens, UniProt P08473)? CC(C)OC(=O)N1C[C@H](S)C[C@H]1CNCc1cc(F)ccc1F
< 4.00
